Target: PREP (Homo sapiens)
Sequence (P48147 whole entry): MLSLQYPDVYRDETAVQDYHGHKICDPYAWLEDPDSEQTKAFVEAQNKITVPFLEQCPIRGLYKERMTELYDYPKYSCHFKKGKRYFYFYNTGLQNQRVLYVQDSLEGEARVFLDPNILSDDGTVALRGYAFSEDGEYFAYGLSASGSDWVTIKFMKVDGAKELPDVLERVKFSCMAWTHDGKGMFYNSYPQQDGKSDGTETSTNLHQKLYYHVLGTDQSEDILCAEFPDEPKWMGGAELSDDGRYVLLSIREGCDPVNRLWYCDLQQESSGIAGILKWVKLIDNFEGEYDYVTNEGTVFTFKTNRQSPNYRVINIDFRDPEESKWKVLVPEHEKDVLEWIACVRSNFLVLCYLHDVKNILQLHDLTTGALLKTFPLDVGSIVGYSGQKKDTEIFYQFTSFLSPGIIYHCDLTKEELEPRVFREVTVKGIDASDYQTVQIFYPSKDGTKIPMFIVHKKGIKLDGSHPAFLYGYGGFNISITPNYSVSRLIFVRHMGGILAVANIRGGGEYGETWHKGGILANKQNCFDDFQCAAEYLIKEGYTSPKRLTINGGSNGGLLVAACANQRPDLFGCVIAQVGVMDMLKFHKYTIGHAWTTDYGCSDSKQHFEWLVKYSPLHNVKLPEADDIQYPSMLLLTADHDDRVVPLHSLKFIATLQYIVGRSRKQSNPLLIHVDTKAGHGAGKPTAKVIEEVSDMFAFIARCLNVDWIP
Assay: Affinity to PREP (IC50)
Assay type: biochemical
Measured attribute: pIC50
# pIC50: negative log10 of molar concentration; output just the value

CN(CC(=O)NCCCCOc1ccc2nccc(C(=O)NCC(=O)N3CC(F)(F)C[C@H]3C#N)c2c1)[C@H]1CCN(C(=O)CCCCC2(N(C)CC(=O)O)CN(CC(=O)O)CCN(CC(=O)O)C2)C1 [(E)] :: 5.59

Now, please, on to the next compound.
Field: pIC50 (PREP (Homo sapiens)). Entry: CN(CC(=O)O)C1(CCCCC(=O)N2CCN(CC(=O)NCCCCOc3ccc4nccc(C(=O)NCC(=O)N5CC(F)(F)C[C@H]5C#N)c4c3)CC2)CN(CC(=O)O)CCN(CC(=O)O)C1 [Compound (B)] 5.82
